Target: Dual specificity mitogen-activated protein kinase kinase 7 (Homo sapiens)
Sequence (O14733 whole entry): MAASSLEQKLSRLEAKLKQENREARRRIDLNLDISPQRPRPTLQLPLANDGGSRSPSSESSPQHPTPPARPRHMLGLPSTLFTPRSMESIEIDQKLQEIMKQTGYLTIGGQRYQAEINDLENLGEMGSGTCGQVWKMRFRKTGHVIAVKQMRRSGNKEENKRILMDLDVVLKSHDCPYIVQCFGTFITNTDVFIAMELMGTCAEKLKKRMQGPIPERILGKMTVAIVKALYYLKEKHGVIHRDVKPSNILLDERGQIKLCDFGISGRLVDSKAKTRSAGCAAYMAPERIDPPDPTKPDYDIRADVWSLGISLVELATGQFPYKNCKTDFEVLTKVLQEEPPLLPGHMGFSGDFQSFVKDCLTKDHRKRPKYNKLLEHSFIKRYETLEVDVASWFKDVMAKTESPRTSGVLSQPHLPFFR
Test: Inhibition of MAP2K7 (unknown origin) using unphosphorylated GST-tagged JNK1 substrate protein assessed as phosphorylation by ELISA
measureName: pIC50
One number for each entry, as −log10 of the molar value.

Incoming: What reported pIC50 corresponds to "COc1cc(O)c2c(c1)/C=C/C[C@H](O)[C@H](O)C(=O)/C=C\C[C@H](C)OC2=O" on Dual specificity mitogen-activated protein kinase kinase 7 (Homo sapiens)?
Outgoing: 5.89
